Test system: OVCAR-5 ovarian
assay overview: NCI-60 one-dose screen, 48 h
stated conditions: 10 µM unless noted
The panel holds about 83,000 compounds, 20% with a hit somewhere; the sample as a whole holds those more often. Calls of active or inactive are those of the source. Rule for the calls: active = growth percent below 10; inactive = the rest.
Outcome codes: active, inactive

| compound | assigned category |
| --- | --- |
| [2H]c1nc(=Nc2cc(NC(=O)C=C)c(N(C)CCN(C)C)cc2OC)[nH]c(-c2cn(C([2H])([2H])[2H])c3ccccc23)c1[2H] | inactive |
| CCCC(=O)Nc1ccccc1C(=O)O | inactive |
| C/C(CCC(=O)O)=N/Nc1ccc([N+](=O)[O-])cc1 | inactive |
| N=C(N)c1ccc(-c2ccc(-c3ccc(F)cc3)s2)cc1 | active |
| CC(=O)Nc1nc(C)c(C(=O)N/N=C/N2CCCCC2)s1 | inactive |
| COc1cc2ncnc(-n3ncc4cc(NC(=O)Nc5ccccc5)ccc43)c2cc1OC | inactive |
| Oc1ccc(CN(Cc2ccc(C(F)(F)F)cc2)Cc2ccc(O)c3ncccc23)c2cccnc12 | inactive |
| CCN(CC)CCCC(C)Nc1c(C)cnc2cc(Cl)c(C)cc12 (stereo unspecified) | inactive |
| COC(=O)c1ccc(C(=Nc2ccc(N(C)C(=O)CN3CCN(C)CC3)cc2)c2c(O)[nH]c3ccc(C(=O)OC)cc23)cc1 | inactive |
| COc1cc2c(c(OC)c1OC)C(=O)CC(c1cccc(C(=O)Nc3cccc(Br)c3)c1)O2 (stereo unspecified) | inactive |
| CCOC(=O)c1c(C)oc2ncnc(Nc3ccc(NC(=O)Nc4ccc(CC)cc4)cc3)c12 | inactive |
| CC(=O)OC1/C=C\CC/C=C\C1 (stereo unspecified) | inactive |
| CCCCCN1CCN(C(CC(=O)c2ccccc2)C(=O)c2ccccc2)CC1 (stereo unspecified) | inactive |
| COC(=O)c1ccc2[nH]c(O)c(C(=Nc3ccc(N(C)C(=O)CN4CCN(C)CC4)cc3)c3ccc([N+](=O)[O-])cc3)c2c1 | inactive |
| O=C1C(Cl)=C(SC2=NCCN2)C(=O)c2ccccc21 | inactive |
| CCCCN(CCCC)CCCNc1c2c(nc3ccc(Cl)cc13)CCCC2 | inactive |
| CCCCn1c(Cc2ccc(OC)cc2)nc2cc(OC)c(OC)cc2c1=O | inactive |
| CN(CCC#N)c1ccc(/C=C(\C#N)c2cccc(C(F)(F)F)c2)cc1 | inactive |
| CC#Cc1nc(Nc2cc(C)[nH]n2)c2ccccc2n1 | inactive |
| CCCCCCCCCCCCCCCCCC1=NCCN1CS(=O)(=O)O | inactive |
| COc1ccc(C(=O)c2no[n+]([O-])c2C(=O)c2ccc(OC)cc2)cc1 | inactive |
| OCC(O)C(O)CC1SCCS1 (stereo unspecified) | inactive |
| CN1CCN(Cc2ccc(NC(=O)c3ccc(C#Cc4c(N)ncc5ccc(F)cc45)cc3)cc2C(F)(F)F)CC1 | active |
| CCc1ccc(C(=Nc2ccc(N(C)C(=O)CN3CCN(C)CC3)cc2)c2c(O)[nH]c3ccc(C(=O)OC)cc23)cc1 | active |
| COc1ccc(C2CC(=O)c3c(O)cc(OC4OC(COC5OC(C)C(O)C(O)C5O)C(O)C(O)C4O)cc3O2)cc1O (stereo unspecified) | inactive |
| CCC(C)[C@H](NC(=O)Nc1cc(C(F)(F)F)cc(C(F)(F)F)c1)C(=O)N[C@@H](Cc1cn(C)cn1)C(=O)OC (stereo partly specified) | active |
| O=C(O)CC1Cc2ccccc2C1C(=O)O (stereo unspecified) | inactive |
| N#CCc1ncc(-c2ccc(C(F)(F)F)cc2)c(NC2CCCCCC2)n1 | inactive |
| CCNc1nnc(COc2ccc(CNC(=O)CCCC/C=C/C(C)C)cc2OC)o1 | inactive |
| COC(=O)c1ccc2[nH]c(O)c(C(=Nc3ccc(N(C)C(=O)CN4CCN(C)CC4)cc3)c3ccc(OC)cc3)c2c1 | inactive |
| Cc1ccc(S(=O)(=O)Nc2cccc(Cn3c(=O)[nH]c4ccc(Oc5ncccn5)cc4c3=O)c2)cc1 | inactive |
| Cc1ccc(S(=O)(=O)NC(CCC(=O)Nc2ccccc2)C(=O)Nc2ccccc2)cc1 (stereo unspecified) | active |
| COc1ccc(-n2nnnc2-c2cn[nH]c2C(F)(F)F)cc1 | inactive |
| CCCC(CCC)Oc1ccc(CCCC2=C(O)c3ccccc3C(=O)C2=O)cc1 | inactive |
| CC(O)CCC(C)[N+](=O)[O-] (stereo unspecified) | inactive |
| CC1(c2ccc(Br)cc2)NC(=O)NC1=O (stereo unspecified) | inactive |
| COc1cc(-c2c3c(cn2CCN2CCCCC2)-c2oncc2CC3)cc(OC)c1OC | inactive |
| Cc1ccc(C(C)C)c(OCc2ccc(C(=O)N/N=C/c3cccc(O)c3O)cc2)c1 | inactive |
| O=C(/C=C/c1cccc(O)c1)c1cccc(-n2cc(-c3ccc(Cl)cc3)[nH]c2=O)c1 | active |
| CCCCCCC(C)N(CC(C)(C)O)C(=O)c1ccc([N+](=O)[O-])cc1 (stereo unspecified) | inactive |
| CCOP1(=O)CC(C)=C(Cl)C(P(=O)(O)O)C1 (stereo unspecified) | inactive |

---

System: NCI-H23 lung
assay overview: NCI-60 one-dose screen, 48 h (100 = growth as untreated, 0 = no growth, -100 = all killed)
stated conditions: 10 µM unless noted
This is part of a sample that, as a whole, favours compounds with a hit. Of some 83,000 tested, about 20% had one in any assay.
Measured growth, listed per entry.

| compound | unit of measure | growth |
| --- | --- | --- |
| CC(C)C(=O)c1ccc(Cl)s1 | % | 103 |
| CN(CCC#N)c1ccc(/C=C(\C#N)c2cccc(C(F)(F)F)c2)cc1 | % | 66.2 |
| COc1cc(NC(C)CCCN)c2nc(C)ccc2c1OC (centres undefined) | % | 90.9 |
| BrCCCOc1ccc(Oc2ccc(OCCCBr)cc2)cc1 | % | 109 |
| CCCCS(=O)(=O)c1cc(Nc2ccc(O)c3c2C(=O)c2ccccc2C3=O)ccc1C | % | 45.7 |
| CCCCCCCCCCCCOC(=N)N(C)C | % | 107 |
| CCC(C)C1NC(=O)C(CCCCN)NC(=O)C(CCCCN)NC(=O)C(CC(C)C)NC(=O)C(CCCCN)NC(=O)C(C(C)CC)NC(=O)C(C(C)C)NC(=O)C(C(C)CC)NC(=O)C(CCCCN)NC(=O)C(CCCCN)NC(=O)C(C)NC(=O)C(CCCCN)NC(=O)C(CC(C)C)NC1=O (centres undefined) | % | 16.6 |
| O=c1oc2ccc3ccccc3c2cc1-c1ccnc2[nH]c(=S)[nH]c(=O)c12 | % | 94.7 |
| Cc1[nH]n(C(=S)Nc2nc3cc(Cl)c(F)cc3s2)c(=O)c1N=Nc1ccc(F)c(Cl)c1 | % | 97.4 |

---

Quick reference: growth of the listed items.
System: NCI-H322M lung
assay overview: NCI-60 one-dose screen, 48 h (100 = growth as untreated, 0 = no growth, -100 = all killed)
stated conditions: 10 µM unless noted
Compounds without any hit were thinned out: in the full panel of roughly 83,000, 20% have a hit. Activity calls are given as the source filed them. The calls were made as follows: active = growth percent below 10; inactive = the rest.
result type: growth

| compound | system tested | recorded value |
| --- | --- | --- |
| CCCCCCCCCCCCCCCCCC1=NCCN1CCNC(C)=O | NCI-H322M lung | 90.6% (inactive) |
| CC1=NN(c2cccc(Cl)c2)C(=O)/C1=C\c1cn(-c2nc(N3CCOCC3)nc(N3CCOCC3)n2)c2ccccc12 | NCI-H322M lung | 91.9% (inactive) |
| CC(=O)CCS(=O)c1ccccc1 (stereo unspecified) | NCI-H322M lung | 93.7% (inactive) |
| CCC(C)CC(N)O (stereo unspecified) | NCI-H322M lung | 116% (inactive) |
| COC(=O)/C(Br)=C/c1c[nH]c2ccc(Br)cc12 | NCI-H322M lung | 100% (inactive) |
| Cc1cc(CSc2ccc(Cl)cc2)ccc1N | NCI-H322M lung | 98.2% (inactive) |

---

System: OVCAR-8 ovarian
assay overview: NCI-60 one-dose screen, 48 h (100 = growth as untreated, 0 = no growth, -100 = all killed)
stated conditions: 10 µM unless noted
Compounds without any hit were thinned out: in the full panel of roughly 83,000, 20% have a hit. Active and inactive are the calls of the source. The calls were made as follows: active = growth percent below 10; inactive = the rest.
Measured growth, listed per entry for reference.
result type: growth

| structure smiles | recorded value |
| --- | --- |
| O=C(N/N=C/c1cc(Cl)ccc1O)C(=O)N/N=C/c1cc(Cl)ccc1O | 60.8% (inactive) |
| Clc1ccc(N/N=C(\c2ccccc2)c2ccccn2)nc1 | 11.3% (inactive) |
| CCOC(=O)c1sc(NS(=O)(=O)c2ccccc2)nc1C | 114% (inactive) |
| Nc1ccc(N=Nc2ccccc2)c2cc(S(=O)(=O)O)ccc12 | 96.5% (inactive) |
| CCCCCCNC(=O)Oc1ccc(/C(=C(/C)Cc2ccc(OC)cc2)c2ccc(OCCN3CCCCC3)cc2)cc1 | 81.2% (inactive) |
